- assayDetails: Plasma pharmacokinetics after single oral dose in female CD-1 mice
- Format: in vivo
- measurementContext: single p.o. dose 10 mg/kg, female CD-1 mice, plasma

molecule | measureUnit | MRT (mean residence time)
CC1=C(/C=C/C(C)=C/C=C/C(C)=C/C(=O)Nc2ccc(F)cc2)C(C)(C)CCC1=O [Compound 16, 4-Oxo-(4′-fluoro(phenyl))-(E)-retinamide] | h | 9.06
[2H]c1nc([2H])n(C2([2H])CCC(C)(C)C(/C=C/C(C)=C/C=C/C(C)=C/C(=O)Nc3ccc(F)cc3)=C2C)c1[2H] (racemic) | h | 5.49
[2H]c1c([2H])c(NC(=O)/C=C(C)/C=C/C=C(C)/C=C/C2=C(C)C(n3ccnc3)CCC2(C)C)c([2H])c([2H])c1F (racemic) | h | 4.63
CC1=C(/C=C/C(C)=C/C=C/C(C)=C/C(=O)Nc2ccc(F)cc2)C(C)(C)CCC1n1ccnc1 (racemic) | h | 3.02
[2H]c1nc([2H])n(C2CCC(C)(C)C(/C=C/C(C)=C/C=C/C(C)=C/C(=O)Nc3ccc(F)cc3)=C2C)c1[2H] (racemic) | h | 3.57
[2H]C1(n2ccnc2)CCC(C)(C)C(/C=C/C(C)=C/C=C/C(C)=C/C(=O)Nc2ccc(F)cc2)=C1C (racemic) | h | 9.06

---

Each entry below lists one item and its recorded T1/2 (elimination half-life) value.
- assayDetails: Plasma pharmacokinetics after single oral dose in female CD-1 mice
- Format: in vivo
- measurementContext: single p.o. dose 10 mg/kg, female CD-1 mice, plasma
readout: T1/2 (elimination half-life) (h)

molecule | readout | numericResult
[2H]C1(n2ccnc2)CCC(C)(C)C(/C=C/C(C)=C/C=C/C(C)=C/C(=O)Nc2ccc(F)cc2)=C1C (racemic) [Compound 4] | T1/2 (elimination half-life) | 12.05
[2H]c1c([2H])c(NC(=O)/C=C(C)/C=C/C=C(C)/C=C/C2=C(C)C(n3ccnc3)CCC2(C)C)c([2H])c([2H])c1F (racemic) [Compound 6] | T1/2 (elimination half-life) | 4.90
[2H]c1nc([2H])n(C2([2H])CCC(C)(C)C(/C=C/C(C)=C/C=C/C(C)=C/C(=O)Nc3ccc(F)cc3)=C2C)c1[2H] (racemic) [Compound 5] | T1/2 (elimination half-life) | 4.27

---

Each entry below lists one item and its recorded log10 Cmax value.
- assayDetails: Plasma pharmacokinetics after single oral dose in female CD-1 mice
- Assay type: in vivo
- measurementContext: single p.o. dose 10 mg/kg, female CD-1 mice, plasma, mean of three mice
readout: log10 Cmax (log10 of the value in ng/mL)

compound | log10 Cmax
[2H]c1c([2H])c(NC(=O)/C=C(C)/C=C/C=C(C)/C=C/C2=C(C)C([2H])(n3ccnc3)CCC2(C)C)c([2H])c([2H])c1F (racemic) | 3.13
[2H]c1nc([2H])n(C2CCC(C)(C)C(/C=C/C(C)=C/C=C/C(C)=C/C(=O)Nc3ccc(F)cc3)=C2C)c1[2H] (racemic) | 2.18
[2H]c1c([2H])c(NC(=O)/C=C(C)/C=C/C=C(C)/C=C/C2=C(C)C(n3ccnc3)CCC2(C)C)c([2H])c([2H])c1F (racemic) | 2.44
[2H]c1nc([2H])n(C2CCC(C)(C)C(/C=C/C(C)=C/C=C/C(C)=C/C(=O)Nc3c([2H])c([2H])c(F)c([2H])c3[2H])=C2C)c1[2H] (racemic) | 2.66
[2H]c1nc([2H])n(C2([2H])CCC(C)(C)C(/C=C/C(C)=C/C=C/C(C)=C/C(=O)Nc3c([2H])c([2H])c(F)c([2H])c3[2H])=C2C)c1[2H] (racemic) | 3.21
CC1=C(/C=C/C(C)=C/C=C/C(C)=C/C(=O)Nc2ccc(F)cc2)C(C)(C)CCC1n1ccnc1 (racemic) | 3.67
[2H]C1(n2ccnc2)CCC(C)(C)C(/C=C/C(C)=C/C=C/C(C)=C/C(=O)Nc2ccc(F)cc2)=C1C (racemic) | 3.01
[2H]c1nc([2H])n(C2([2H])CCC(C)(C)C(/C=C/C(C)=C/C=C/C(C)=C/C(=O)Nc3ccc(F)cc3)=C2C)c1[2H] (racemic) | 2.70

---

- assayDetails: Plasma pharmacokinetics after single oral dose in female CD-1 mice
- Assay type: in vivo
- measurementContext: mouse, po; single p.o. dose 10 mg/kg, female CD-1 mice, plasma
So basically: is AUC(0-inf) under 3000 ng·h/mL? Then T. Not under? Then F.

compound | discreteLabel
[2H]c1c([2H])c(NC(=O)/C=C(C)/C=C/C=C(C)/C=C/C2=C(C)C(n3ccnc3)CCC2(C)C)c([2H])c([2H])c1F (racemic) | T
[2H]c1nc([2H])n(C2CCC(C)(C)C(/C=C/C(C)=C/C=C/C(C)=C/C(=O)Nc3ccc(F)cc3)=C2C)c1[2H] (racemic) | T
[2H]c1nc([2H])n(C2CCC(C)(C)C(/C=C/C(C)=C/C=C/C(C)=C/C(=O)Nc3c([2H])c([2H])c(F)c([2H])c3[2H])=C2C)c1[2H] (racemic) | T
[2H]c1c([2H])c(NC(=O)/C=C(C)/C=C/C=C(C)/C=C/C2=C(C)C([2H])(n3ccnc3)CCC2(C)C)c([2H])c([2H])c1F (racemic) | F
[2H]c1nc([2H])n(C2([2H])CCC(C)(C)C(/C=C/C(C)=C/C=C/C(C)=C/C(=O)Nc3c([2H])c([2H])c(F)c([2H])c3[2H])=C2C)c1[2H] (racemic) | F
[2H]C1(n2ccnc2)CCC(C)(C)C(/C=C/C(C)=C/C=C/C(C)=C/C(=O)Nc2ccc(F)cc2)=C1C (racemic) | F
[2H]c1nc([2H])n(C2([2H])CCC(C)(C)C(/C=C/C(C)=C/C=C/C(C)=C/C(=O)Nc3ccc(F)cc3)=C2C)c1[2H] (racemic) | T

---

- assayDetails: Plasma pharmacokinetics after single oral dose in female CD-1 mice
- Type: in vivo
- measurementContext: single p.o. dose 10 mg/kg, female CD-1 mice, plasma

compound | Tmax / min
[2H]c1nc([2H])n(C2CCC(C)(C)C(/C=C/C(C)=C/C=C/C(C)=C/C(=O)Nc3c([2H])c([2H])c(F)c([2H])c3[2H])=C2C)c1[2H] (racemic) [Compound 7] | 49.8
[2H]C1(n2ccnc2)CCC(C)(C)C(/C=C/C(C)=C/C=C/C(C)=C/C(=O)Nc2ccc(F)cc2)=C1C (racemic) [Compound 4] | 150
[2H]c1c([2H])c(NC(=O)/C=C(C)/C=C/C=C(C)/C=C/C2=C(C)C([2H])(n3ccnc3)CCC2(C)C)c([2H])c([2H])c1F (racemic) [Compound 8] | 45
[2H]c1nc([2H])n(C2([2H])CCC(C)(C)C(/C=C/C(C)=C/C=C/C(C)=C/C(=O)Nc3c([2H])c([2H])c(F)c([2H])c3[2H])=C2C)c1[2H] (racemic) [Compound 9] | 160
[2H]c1nc([2H])n(C2([2H])CCC(C)(C)C(/C=C/C(C)=C/C=C/C(C)=C/C(=O)Nc3ccc(F)cc3)=C2C)c1[2H] (racemic) [Compound 5] | 40.2
[2H]c1nc([2H])n(C2CCC(C)(C)C(/C=C/C(C)=C/C=C/C(C)=C/C(=O)Nc3ccc(F)cc3)=C2C)c1[2H] (racemic) [Compound 3] | 79.8
CC1=C(/C=C/C(C)=C/C=C/C(C)=C/C(=O)Nc2ccc(F)cc2)C(C)(C)CCC1n1ccnc1 (racemic) [Compound 2] | 49.8

---

- assayDetails: Plasma pharmacokinetics after single oral dose in female CD-1 mice
- Assay type: in vivo
- measurementContext: single p.o. dose 10 mg/kg, female CD-1 mice, plasma

molecule | MRT (mean residence time) (h)
[2H]c1nc([2H])n(C2([2H])CCC(C)(C)C(/C=C/C(C)=C/C=C/C(C)=C/C(=O)Nc3c([2H])c([2H])c(F)c([2H])c3[2H])=C2C)c1[2H] (racemic) | 8.92
[2H]c1c([2H])c(NC(=O)/C=C(C)/C=C/C=C(C)/C=C/C2=C(C)C([2H])(n3ccnc3)CCC2(C)C)c([2H])c([2H])c1F (racemic) | 8.48
[2H]c1nc([2H])n(C2CCC(C)(C)C(/C=C/C(C)=C/C=C/C(C)=C/C(=O)Nc3c([2H])c([2H])c(F)c([2H])c3[2H])=C2C)c1[2H] (racemic) | 2.89

---

- assayDetails: Plasma pharmacokinetics after single oral dose in female CD-1 mice
- Format: in vivo
- measurementContext: single p.o. dose 10 mg/kg, female CD-1 mice, plasma
Each entry below lists one item and its recorded T1/2 (elimination half-life) value.

molecule | T1/2 (elimination half-life), h
[2H]c1nc([2H])n(C2CCC(C)(C)C(/C=C/C(C)=C/C=C/C(C)=C/C(=O)Nc3c([2H])c([2H])c(F)c([2H])c3[2H])=C2C)c1[2H] (racemic) | 4.34
CC1=C(/C=C/C(C)=C/C=C/C(C)=C/C(=O)Nc2ccc(F)cc2)C(C)(C)CCC1=O [Compound 16, 4-Oxo-(4′-fluoro(phenyl))-(E)-retinamide] | 12.05
CC1=C(/C=C/C(C)=C/C=C/C(C)=C/C(=O)Nc2ccc(F)cc2)C(C)(C)CCC1n1ccnc1 (racemic) | 3.61
